Data provenance: ChEMBL document CHEMBL1201862

assay: inhibitors of intracellular T. cruzi replication, confirmation, NIH3T3 host cells, beta-gal luminescence (AID 2044); assay type: functional, cell-based;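 note: intracellular parasites grown in NIH/3T3 mouse fibroblasts as host cells; luminescent beta-galactosidase reporter signal from transgenic T. cruzi replicating inside host cells; inhibitors lower the luminescence signal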
The source made the active and inactive calls.
measured attribute: EC50

Consider the reported EC50 for these compounds:
COc1cccc(-c2cc3nc(-c4ccccc4)cc(N4CCC5(CC4)OCCO5)n3n2)c1    1820 nM (active)
CCOc1ccc(-c2cc(C)[n+](CCO)c(-c3ccc(OCC)cc3)c2)cc1.[O-][Cl+3]([O-])([O-])[O-]    < 100 nM (active)
COc1cc2nc(Nc3ccc(C)c(C)c3)nc(N)c2cc1OC    559 nM (active)
CCCC(=O)NC(c1ccc(C)cc1)c1ccc2cccnc2c1O (stereo unspecified)    348 nM (active)
CCCCCC(=O)N/N=C/c1ccc([N+](=O)[O-])o1    183 nM (active)

Task: Need EC50 of COc1ccc(CCN(Cc2cccs2)S(=O)(=O)c2ccc(S(=O)(=O)N(C)C3CCCCC3)cc2)cc1OC , thanks.
Output: 878 nM (active)

* * *

biological target: Large T antigen (Simian virus 40, UniProt P03070); format: functional, Betapolyomavirus macacae
Sequence (P03070 whole entry): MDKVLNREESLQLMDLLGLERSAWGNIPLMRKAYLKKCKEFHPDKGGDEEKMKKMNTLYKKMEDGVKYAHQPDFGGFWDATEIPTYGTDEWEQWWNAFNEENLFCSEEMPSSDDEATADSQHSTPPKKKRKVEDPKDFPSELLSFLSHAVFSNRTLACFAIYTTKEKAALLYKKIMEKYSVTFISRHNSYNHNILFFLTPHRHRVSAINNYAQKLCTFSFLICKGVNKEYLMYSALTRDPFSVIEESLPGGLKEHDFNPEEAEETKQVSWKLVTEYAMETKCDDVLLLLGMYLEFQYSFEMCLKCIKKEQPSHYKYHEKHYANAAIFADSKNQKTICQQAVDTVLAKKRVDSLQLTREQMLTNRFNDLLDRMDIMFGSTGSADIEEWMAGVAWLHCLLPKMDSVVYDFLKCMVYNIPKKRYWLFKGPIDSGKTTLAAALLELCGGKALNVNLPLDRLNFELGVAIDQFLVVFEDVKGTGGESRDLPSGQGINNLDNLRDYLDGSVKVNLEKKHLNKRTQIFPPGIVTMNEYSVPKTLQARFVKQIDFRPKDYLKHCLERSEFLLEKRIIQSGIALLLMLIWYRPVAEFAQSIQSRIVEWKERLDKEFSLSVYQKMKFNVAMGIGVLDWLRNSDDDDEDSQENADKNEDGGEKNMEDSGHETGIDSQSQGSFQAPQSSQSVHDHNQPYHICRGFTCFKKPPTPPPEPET
Activity calls are given as the source filed them.
Examples of compounds with documented IC50 follow.

C=CCOC(=O)C1=C(C)N=c2s/c(=C3\C(=O)N(CC(=O)O)c4ccccc43)c(=O)n2C1c1ccc(OC)cc1 (stereo not drawn)    49.1 µM (active)

Task: Need IC50 of Nc1nc2ccc(N3CCOCC3)cc2s1 , thanks.
Output: 7.66 µM (active)

Task: Need IC50 of Cc1c(C)n(Cc2ccccc2)c2ncnc(NN)c12 , thanks.
Output: > 100 µM (active)

* * *

target: Nonstructural protein 1 (Influenza A virus, UniProt Q194T2); format: functional, Influenza A virus (A/California/07/2009(H1N1))
Sequence (Q194T2 whole entry): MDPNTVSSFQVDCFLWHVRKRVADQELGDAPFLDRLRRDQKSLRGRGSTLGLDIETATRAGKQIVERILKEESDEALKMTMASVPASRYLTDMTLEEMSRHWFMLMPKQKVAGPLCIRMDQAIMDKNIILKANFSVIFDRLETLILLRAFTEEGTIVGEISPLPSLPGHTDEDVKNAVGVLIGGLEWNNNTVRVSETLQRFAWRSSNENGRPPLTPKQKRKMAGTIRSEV
The source made the active and inactive calls.
measured attribute: IC50

Consider the reported IC50 for these molecules:
CN(C)c1ccc(N=Nc2cccc3ccoc23)cc1    39.3 µM (active)
Cc1ccnc(NC(c2cccnc2)c2ccc3cccnc3c2O)c1 (stereo not given)    8.52 µM (active)
Cc1cc(O)nc(NN=Cc2cc(Br)ccc2O)n1    12.2 µM (active)
O=C(Nc1cccc(CNCCc2c[nH]c3ccccc23)c1)c1ccccc1Cl    > 100 µM (active)

Kindly review the next molecule as well.
Task: Need IC50 of CN1CCN(C2CCN(Cc3ccc(O)c4ncccc34)CC2)CC1 , thanks.
Output: 5.84 µM (active)

* * *

molecular target: Large T antigen (Simian virus 40, UniProt P03070); assay type: functional, Betapolyomavirus macacae
The source made the active and inactive calls.
Examples of compounds with documented IC50 follow.

Consider the reported IC50 for these compounds:
CCOC(=O)c1cc(-c2ccc(N)cc2)sc1N    9.87 µM (active)
Cc1ccc(C2(C)NC(=O)N(CC(=O)Nc3nc(-c4ccccn4)cs3)C2=O)cc1 (stereo not given)    > 100 µM (active)
O=C(O)/C=C/C(=O)c1ccc2c(c1)CCc1ccccc1-2    34.5 µM (active)
Oc1ccc(-c2nc3ccccn3c2NCc2ccco2)cc1    11.4 µM (active)

Kindly review the next compound as well.
Task: Request - read-out IC50 | tested on Large T antigen (Simian virus 40, UniProt P03070) | compound N=C1/C(=C\c2ccc(O)cc2)C(=O)N=C2SC(CC(=O)N3CCCCC3)=NN12;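 note: Confirmatory-stage PubChem screen for compounds that inhibit SV40 T antigen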
Output: 14.2 µM (active)
